- EXPERIMENTAL SYSTEM: T1, mouse IL-22 (mouse, UniProt Q9JJY9 34-179)
- T1 construct: also called mIL-22; mIL22
- T1 sequence (looked up): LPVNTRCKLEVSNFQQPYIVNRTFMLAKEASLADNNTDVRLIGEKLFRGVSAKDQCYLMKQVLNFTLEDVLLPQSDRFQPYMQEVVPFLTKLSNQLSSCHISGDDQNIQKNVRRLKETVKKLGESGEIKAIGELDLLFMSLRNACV
- EXPERIMENT: SPR (SierraSensors SPR-2), mIL-22 immobilized on chip, antibody injected, heterogeneous ligand model
Entries whose Kd is below 5 nM take MET; entries at or above 5 nM take NOT MET.

Answered cases to consult:
>>> discrete_label("CPS-09 (antibody, V domains shown, Mutant of humanized hum10, whole antibody expressed in CHO cells; also called CPS-hit-09; CSP09) VH: QVQLVQSGAEVKKPGASVKVSCKASGYIFRSYWIHWIRQPPGKGLEWIGRIYPGTGRTYYNEKFKGRVTISADKSISTAYLQWSSLKASDTAMYYCARSYDYSVAYWGQGTLVTVSS VL: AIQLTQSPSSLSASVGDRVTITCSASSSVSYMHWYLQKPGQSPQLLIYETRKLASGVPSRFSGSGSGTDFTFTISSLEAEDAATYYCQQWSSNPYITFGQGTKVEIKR")
"MET"
>>> discrete_label("CPS-17 (antibody, V domains shown, Mutant of humanized hum10, whole antibody expressed in CHO cells; also called LC-04 / HC-49) VH: QVQLVQSGAEVKKPGASVKVSCKASGYIFRSYWIHWIRQPPGKGLEWIGRIYPGTGNTYYNRKFKGRVTISADKSISTAYLQWSSLKASDTAMYYCARSYMYSVAYWGQGTLVTVSS VL: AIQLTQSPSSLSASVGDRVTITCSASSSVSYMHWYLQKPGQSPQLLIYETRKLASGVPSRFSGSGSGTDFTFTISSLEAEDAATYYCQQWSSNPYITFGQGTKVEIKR")
"NOT MET"
>>> discrete_label("CPS-04 (antibody, V domains shown, Mutant of humanized hum10, whole antibody expressed in CHO cells; also called LC-07 / HC-09) VH: QVQLVQSGAEVKKPGASVKVSCKASGYIFRSYWIHWIRQPPGKGLEWIGRIYPGTGNTYYNRKFKGRVTISADKSISTAYLQWSSLKASDTAMYYCARSYDSSVAYWGQGTLVTVSS VL: AIQLTQSPSSLSASVGDRVTITCSASSSVSYMHWYLQKPGQSPQLLIYKTSKLLSGVPSRFSGSGSGTDFTFTISSLEAEDAATYYCQQWSSNPYITFGQGTKVEIKR")
"MET"
>>> discrete_label("CPS-02 (antibody, V domains shown, Mutant of humanized hum10, whole antibody expressed in CHO cells; also called CPS-hit-02; CSP02) VH: QVQLVQSGAEVKKPGASVKVSCKASGYIFRSYWIHWIRQPPGKGLEWIGRIYPGTGRTYYNEKFKGRVTISADKSISTAYLQWSSLKASDTAMYYCARSYDSSVAYWGQGTLVTVSS VL: AIQLTQSPSSLSASVGDRVTITCSASSSVSYMHWYLQKPGQSPQLLIYKTRKLASGVPSRFSGSGSGTDFTFTISSLEAEDAATYYCQQWSSNPYITFGQGTKVEIKR")
"MET"
>>> discrete_label("CPE-LC-E049K (antibody, V domains shown, One of the mutant antibodies of the CPE library made from hum10 (CDR positions substituted); built here as hum10 with E49K in the light chain, read from its name) VH: QVQLVQSGAEVKKPGASVKVSCKASGYIFTSYWIHWIRQPPGKGLEWIGRIYPGTGNTYYNEKFKGRVTISADKSISTAYLQWSSLKASDTAMYYCARSYDSSCAYWGQGTLVTVSS VL: AIQLTQSPSSLSASVGDRVTITCSASSSVSYMHWYLQKPGQSPQLLIYKTSKLASGVPSRFSGSGSGTDFTFTISSLEAEDAATYYCQQWSSNPYITFGQGTKVEIKR")
"NOT MET"

Attention now turns to another entry.
[ask] Quick check: Kd of CPS-14 (antibody, V domains shown, Mutant of humanized hum10, whole antibody expressed in CHO cells; also called LC-04 / HC-31) VH: QVQLVQSGAEVKKPGASVKVSCKASGYIFTSYWIHWIRQPPGKGLEWIGRIYPGTGRTYYNRKFKGRVTISADKSISTAYLQWSSLKASDTAMYYCARSYDYSVAYWGQGTLVTVSS VL: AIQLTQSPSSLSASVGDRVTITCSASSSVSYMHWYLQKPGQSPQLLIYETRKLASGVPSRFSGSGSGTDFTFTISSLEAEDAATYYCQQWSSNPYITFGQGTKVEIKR under 5 nM?
[reply] MET
